# Method Notes: Stability confirmation test (impurity formation during storage under severe conditions, liquid chromatography)
# Type: physicochemical
# Condition Info: moisture-proof condition (60° C. and less than 10% relative humidity), After 4 weeks
Experimental Endpoint: Peak area of total impurities (%)
Number only, in %; omit the unit.

# Compound, Peak area of total impurities (%)
measured = [
    ("CNCc1cn(S(=O)(=O)c2cccc(F)c2)c(-c2ccc(F)cc2F)c1OC.O=C(O)CCC(=O)O [Example 2]", 0.45),
    ("CNCc1cn(S(=O)(=O)c2cccc(F)c2)c(-c2ccc(F)cc2F)c1OC.O=C(O)/C=C/C(=O)O [Example 4]", 0.63),
    ("CNCc1cn(S(=O)(=O)c2cccc(F)c2)c(-c2ccc(F)cc2F)c1OC.Cl [Example 1]", 0.20),
]

Now turn to the next compound.
I have this compound here, CNCc1cn(S(=O)(=O)c2cccc(F)c2)c(-c2ccc(F)cc2F)c1OC.O=C(O)C(O)C(O)C(=O)O [Example 3] , and I need its recorded Peak area of total impurities (%). 0.52

====

# Method Notes: Stability confirmation test (impurity formation during storage under severe conditions, liquid chromatography)
# Format: physicochemical
# Condition Info: moisture-proof condition (60° C. and less than 10% relative humidity), Initial
Experimental Endpoint: Peak area of total impurities (%)
Please answer using the number first and the unit second.

Look over these answered cases.
# Compound, Peak area of total impurities (%)
data = [
    ("CNCc1cn(S(=O)(=O)c2cccc(F)c2)c(-c2ccc(F)cc2F)c1OC.O=C(O)CCC(=O)O [Example 2]", "0.45%"),
    ("CNCc1cn(S(=O)(=O)c2cccc(F)c2)c(-c2ccc(F)cc2F)c1OC.O=C(O)/C=C/C(=O)O [Example 4]", "0.62%"),
]

I have this compound here, CNCc1cn(S(=O)(=O)c2cccc(F)c2)c(-c2ccc(F)cc2F)c1OC.Cl [Example 1] , and I need its recorded Peak area of total impurities (%). 0.18%

CNCc1cn(S(=O)(=O)c2cccc(F)c2)c(-c2ccc(F)cc2F)c1OC.O=C(O)C(O)C(O)C(=O)O [Example 3] ? 0.48%

====

Measured Peak area of total impurities (%) values are reported for all entries that follow.
# Method Notes: Stability confirmation test (impurity formation during storage under severe conditions, liquid chromatography)
# Type: physicochemical
# Condition Info: high-humidity exposure condition (60° C. and 95% relative humidity), Initial
Number only, in %; omit the unit.

Look over these answered cases.
# Structure Smiles, Experimental Endpoint, Test Result
rows = [
    ("CNCc1cn(S(=O)(=O)c2cccc(F)c2)c(-c2ccc(F)cc2F)c1OC.O=C(O)/C=C/C(=O)O", "Peak area of total impurities (%)", 0.62),
    ("CNCc1cn(S(=O)(=O)c2cccc(F)c2)c(-c2ccc(F)cc2F)c1OC.O=C(O)C(O)C(O)C(=O)O", "Peak area of total impurities (%)", 0.48),
    ("CNCc1cn(S(=O)(=O)c2cccc(F)c2)c(-c2ccc(F)cc2F)c1OC.O=C(O)CCC(=O)O", "Peak area of total impurities (%)", 0.45),
]

Now turn to the next compound.
I have this compound here, CNCc1cn(S(=O)(=O)c2cccc(F)c2)c(-c2ccc(F)cc2F)c1OC.Cl , and I need its recorded Peak area of total impurities (%). 0.18

====

Measured Peak area of total impurities (%) values are reported for all entries that follow.
# Method Notes: Stability confirmation test (impurity formation during storage under severe conditions, liquid chromatography)
# Assay type: physicochemical
# Condition Info: moisture-proof condition (60° C. and less than 10% relative humidity), After 2 weeks
Number only, in %; omit the unit.

# Compound, Peak area of total impurities (%)
records = [
    ("CNCc1cn(S(=O)(=O)c2cccc(F)c2)c(-c2ccc(F)cc2F)c1OC.O=C(O)CCC(=O)O [Example 2]", 0.39),
]

I have this compound here, CNCc1cn(S(=O)(=O)c2cccc(F)c2)c(-c2ccc(F)cc2F)c1OC.O=C(O)C(O)C(O)C(=O)O [Example 3] , and I need its recorded Peak area of total impurities (%). 0.46

CNCc1cn(S(=O)(=O)c2cccc(F)c2)c(-c2ccc(F)cc2F)c1OC.O=C(O)/C=C/C(=O)O [Example 4] ? 0.64

CNCc1cn(S(=O)(=O)c2cccc(F)c2)c(-c2ccc(F)cc2F)c1OC.Cl [Example 1] ? 0.19

Entry source: patent US10487053B2
